// provenance: patent US8575338B2

target: human BKαβ1 channels (Homo sapiens, UniProt Q12791); construct: expressed in transfected cells; host or cells: CHO cells (G418 and hygromycin selection); experiment: BK current in CHO cells expressing human BKαβ1 (PatchXpress whole-cell patch clamp), EC100; format: cell-based; details: drug concentration causing 100% increase of BK current
Sequence (Q12791 whole entry): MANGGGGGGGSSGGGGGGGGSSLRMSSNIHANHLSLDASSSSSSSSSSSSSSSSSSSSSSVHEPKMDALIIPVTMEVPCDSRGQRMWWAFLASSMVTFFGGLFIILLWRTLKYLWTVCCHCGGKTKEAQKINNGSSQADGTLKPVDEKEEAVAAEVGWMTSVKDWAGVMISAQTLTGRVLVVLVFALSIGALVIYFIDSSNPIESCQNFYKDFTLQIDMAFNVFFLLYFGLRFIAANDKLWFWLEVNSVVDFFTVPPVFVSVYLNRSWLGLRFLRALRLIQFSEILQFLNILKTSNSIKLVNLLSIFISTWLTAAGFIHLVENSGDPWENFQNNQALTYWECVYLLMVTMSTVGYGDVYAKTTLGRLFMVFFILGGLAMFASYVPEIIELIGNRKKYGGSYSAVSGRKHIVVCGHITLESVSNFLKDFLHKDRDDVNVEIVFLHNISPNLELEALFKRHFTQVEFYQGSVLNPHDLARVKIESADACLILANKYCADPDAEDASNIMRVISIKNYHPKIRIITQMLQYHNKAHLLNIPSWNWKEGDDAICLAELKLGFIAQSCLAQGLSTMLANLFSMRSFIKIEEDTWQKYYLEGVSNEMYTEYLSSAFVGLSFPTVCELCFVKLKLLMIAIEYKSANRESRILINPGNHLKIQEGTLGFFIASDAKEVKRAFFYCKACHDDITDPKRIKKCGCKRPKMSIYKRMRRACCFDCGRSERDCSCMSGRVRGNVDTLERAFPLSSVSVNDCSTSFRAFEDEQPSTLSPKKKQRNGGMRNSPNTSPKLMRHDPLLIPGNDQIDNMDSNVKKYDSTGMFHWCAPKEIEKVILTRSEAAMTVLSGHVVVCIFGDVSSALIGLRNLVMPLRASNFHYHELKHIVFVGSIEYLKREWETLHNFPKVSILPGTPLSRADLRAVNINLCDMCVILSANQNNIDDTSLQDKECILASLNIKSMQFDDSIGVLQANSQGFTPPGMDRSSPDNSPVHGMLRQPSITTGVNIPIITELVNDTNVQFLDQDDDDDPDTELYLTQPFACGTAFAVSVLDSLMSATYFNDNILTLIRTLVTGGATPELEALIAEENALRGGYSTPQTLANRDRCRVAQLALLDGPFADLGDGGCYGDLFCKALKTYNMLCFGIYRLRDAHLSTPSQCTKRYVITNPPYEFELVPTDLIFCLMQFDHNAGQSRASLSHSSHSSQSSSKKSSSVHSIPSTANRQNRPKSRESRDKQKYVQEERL
Sequence (Q16558 whole entry partner): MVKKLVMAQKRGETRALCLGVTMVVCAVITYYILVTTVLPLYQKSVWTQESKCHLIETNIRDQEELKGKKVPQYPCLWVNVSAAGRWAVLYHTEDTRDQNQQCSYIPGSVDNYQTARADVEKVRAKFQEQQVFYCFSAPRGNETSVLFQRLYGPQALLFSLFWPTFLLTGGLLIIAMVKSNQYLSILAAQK
Criterion: EC100 strictly under 0.4 µM. Met: 1.0. Not met: 0.0.

[[record]]
structure_smiles_string = "CCOCC1CCN(c2nc(-c3ccc(F)cc3)nc(OC3(C(=O)O)CC3)c2C)CC1"
label = 0.0

[[record]]
structure_smiles_string = "CCCOC1CCN(c2nc(-c3ccc(Cl)cc3)nc(OC3(C(=O)[O-])CC3)c2F)CC1.[Na+]"
label = 0.0

[[record]]
structure_smiles_string = "CCCCOC1CCN(c2nc(-c3ccc(Cl)cc3)nc(OC3(C(=O)[O-])CC3)c2C)CC1.[Na+]"
label = 0.0

[[record]]
structure_smiles_string = "O=C([O-])C1(Oc2cc(-c3nccs3)nc(-c3ccc(Cl)c(F)c3)n2)CCCC1.[Na+]"
label = 0.0

[[record]]
structure_smiles_string = "CCOCC1CCN(c2nc(OC3(C(=O)[O-])CC3)cc(-c3ccc(Cl)s3)n2)CC1.[Na+]"
label = 1.0

[[record]]
structure_smiles_string = "COc1ccc(-c2cc(OC3(C(=O)[O-])CC3)nc(-c3ccc(Cl)c(F)c3)n2)cn1.[Na+]"
label = 1.0

[[record]]
structure_smiles_string = "O=C([O-])C1(Oc2cc(-c3ccc(F)cc3)nc(-c3ccc(Cl)c(F)c3)n2)CC1.[Na+]"
label = 1.0

[[record]]
structure_smiles_string = "N#Cc1cc(Cl)ccc1-c1cc(OC2(C(=O)O)CC2)nc(-c2ccc(Cl)cc2)n1"
label = 1.0

[[record]]
structure_smiles_string = "COc1cc(F)ccc1-c1cc(OC2(C(=O)[O-])CC2)nc(-c2cccc(F)c2)n1.[Na+]"
label = 1.0

[[record]]
structure_smiles_string = "COCc1cc(Cl)ccc1-c1cc(OC2(C(=O)O)CC2)nc(-c2ccc(Cl)cc2)n1"
label = 1.0

[[record]]
structure_smiles_string = "Cc1cc(F)ccc1-c1cc(OC2(C(=O)O)CC2)nc(-c2ccc(F)cc2)c1"
label = 1.0

[[record]]
structure_smiles_string = "CCCOC1CCN(c2cc(OC3(C(=O)[O-])CC3)nc(-c3ccc(F)cc3)n2)CC1.[Na+]"
label = 0.0

[[record]]
structure_smiles_string = "COc1ccc(-c2nc(-c3ccc(F)cc3)nc(OC3(C(=O)[O-])CC3)c2C)cc1Cl.[Na+]"
label = 1.0

[[record]]
structure_smiles_string = "COc1cc(F)ccc1-c1cc(OC2(C(=O)[O-])CC2)nc(-c2ccc(F)c(F)c2)n1.[Na+]"
label = 1.0

[[record]]
structure_smiles_string = "Cc1ccc(C(F)(F)F)cc1-c1nc(OC2(C(=O)[O-])CC2)nc(-c2ccc(Cl)cc2)n1.[Na+]"
label = 1.0

[[record]]
structure_smiles_string = "O=C(O)C1(Nc2cc(-c3ccc(F)cc3)nc(-c3ccc(Cl)c(F)c3)n2)CC1"
label = 1.0

[[record]]
structure_smiles_string = "Cc1cc(-c2nc(-c3ccc(F)cc3)nc(OC3(C(=O)[O-])CC3)c2C)ccc1F.[Na+]"
label = 1.0

[[record]]
structure_smiles_string = "COC[C@@H]1CCCN1c1cc(OC2(C(=O)[O-])CC2)nc(-c2ccc(Cl)s2)n1.[Na+]"
label = 0.0

